MEASUREMENT_TARGET: T1, human folate receptor 1 (human, UniProt P15328 25-234)
T1 construct: also called FOLR1; Folate Receptor-alpha
T1 sequence (P15328 25-234 limits assumed): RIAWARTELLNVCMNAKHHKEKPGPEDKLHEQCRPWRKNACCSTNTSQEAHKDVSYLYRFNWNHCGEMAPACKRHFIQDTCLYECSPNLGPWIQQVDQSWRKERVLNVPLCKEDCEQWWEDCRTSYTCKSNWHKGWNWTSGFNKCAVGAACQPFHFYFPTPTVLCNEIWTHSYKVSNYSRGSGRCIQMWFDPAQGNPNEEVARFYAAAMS
ASSAY: apparent affinity, flow cytometry on FOLR1-expressing cells ('as described above'; cell line not named in Example 19, SKOV3 in Example 13)
METRIC: Kd (nM)
Your answer should be a plain number; it is taken to be in nM.

# input Kd lookup needed for huFR1-48 (antibody, human IgG1, kappa, V domains shown) VH: QVQLVQSGAEVAKPGASVKLSCKASGYTFTNYWMQWIKQRPGQGLEWIGAIYPGNGDSRYTQKFQGKATLTADKSSSTAYMQVSSLTSEDSAVYYCARRDGNYAAYWGQGTLVTVSA VL: DIQMTQSPSSLSVSVGERVTITCRASENIYSNLAWYQQKPGKSPKLLVYAATNLADGVPSRFSGSESGTDYSLKINSLQPEDFGSYYCQHFWASPYTFGQGTKLEIKR , thanks.
# output 0.13
